- assayed_target: OsWRKY34 (Oryza sativa, UniProt Q0JBA9 1-250)
- Sequence (Q0JBA9 entry or part of it): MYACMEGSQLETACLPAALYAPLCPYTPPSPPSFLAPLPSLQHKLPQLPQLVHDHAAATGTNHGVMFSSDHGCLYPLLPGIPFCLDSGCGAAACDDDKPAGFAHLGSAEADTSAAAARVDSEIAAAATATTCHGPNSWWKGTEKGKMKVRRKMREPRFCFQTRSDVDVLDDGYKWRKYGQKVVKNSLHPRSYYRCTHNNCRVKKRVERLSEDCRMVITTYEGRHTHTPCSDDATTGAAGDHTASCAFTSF
- assay_name: protein-binding microarray (RPBM); PBS, 2% BSA, 51.3 ng/ul salmon testes DNA, 50 uM zinc acetate, 200 nM TF, 25 C, 1 h; high values mean tight binding
- stated_conditions: protein: recombinant; tags: N-terminal polyhistidine and DsRed monomer fusion (pET32a); label: CyDye5-dUTP incorporated in the synthesized complementary strand; 3' TTTTT single-stranded linker to array surface; dsDNA, one strand shown
Whole data set: some 68,000 sequences, median “fluorescence intensity (a.u.)” near 9,100, cut for the highest 2% near 16,000. For the sample, the highest values were picked, then their nearest neighbours and some sequences at random.
metric_name: binding signal

Examples from the recorded data:
AATTAGTTCCTGGACTTTGTGTATTACTAGTACTACTCCACGGAGTCACCTAGTGCAG : 8570 fluorescence intensity (a.u.)
CATCCGTATTTTAATGTATGACACCGTTGACTTTTCGACTCGGAGTCACCTAGTGCAG : 19100 fluorescence intensity (a.u.)

GET /value?item= GATCGTTTCTATTCCTAATTCGTTTTCTTTATACTCCCTCCGGAGTCACCTAGTGCAG &field=binding signal returns 11100 fluorescence intensity (a.u.)

GET /value?item= CTTTCCTTTCTTTGTTTTTTATCTTTGTTTTCTTTCTTCCCGGAGTCACCTAGTGCAG &field=binding signal returns 11800 fluorescence intensity (a.u.)

GET /value?item= CATATTTTAATTTTAATGTATGACACCGTTGACTTTTCGACGGAGTCACCTAGTGCAG &field=binding signal returns 16000 fluorescence intensity (a.u.)

GET /value?item= AAATACTCCCTCCGTATTTTAATGTATGACACCGTTGACTCGGAGTCACCTAGTGCAG &field=binding signal returns 10300 fluorescence intensity (a.u.)

GET /value?item= ATATCCCTTCTCTTCCCTCATCTCTCCACCTCTTCCATCTCGGAGTCACCTAGTGCAG &field=binding signal returns 8890 fluorescence intensity (a.u.)
